Recorded inhibition, one value per entry.
# Subject Of Test: Cyclin-dependent kinase 1/cyclin B1 (Homo sapiens, UniProt P06493+P14635)
# Sequence (P06493 whole entry, looked up): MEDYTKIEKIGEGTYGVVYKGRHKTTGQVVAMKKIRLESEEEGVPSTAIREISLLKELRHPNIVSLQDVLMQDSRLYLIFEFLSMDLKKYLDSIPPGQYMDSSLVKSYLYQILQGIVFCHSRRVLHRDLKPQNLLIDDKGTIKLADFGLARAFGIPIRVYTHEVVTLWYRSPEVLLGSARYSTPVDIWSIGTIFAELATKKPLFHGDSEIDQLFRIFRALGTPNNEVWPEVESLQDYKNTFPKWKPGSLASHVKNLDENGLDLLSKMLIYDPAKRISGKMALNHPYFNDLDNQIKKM
# Sequence (P14635 whole entry, looked up): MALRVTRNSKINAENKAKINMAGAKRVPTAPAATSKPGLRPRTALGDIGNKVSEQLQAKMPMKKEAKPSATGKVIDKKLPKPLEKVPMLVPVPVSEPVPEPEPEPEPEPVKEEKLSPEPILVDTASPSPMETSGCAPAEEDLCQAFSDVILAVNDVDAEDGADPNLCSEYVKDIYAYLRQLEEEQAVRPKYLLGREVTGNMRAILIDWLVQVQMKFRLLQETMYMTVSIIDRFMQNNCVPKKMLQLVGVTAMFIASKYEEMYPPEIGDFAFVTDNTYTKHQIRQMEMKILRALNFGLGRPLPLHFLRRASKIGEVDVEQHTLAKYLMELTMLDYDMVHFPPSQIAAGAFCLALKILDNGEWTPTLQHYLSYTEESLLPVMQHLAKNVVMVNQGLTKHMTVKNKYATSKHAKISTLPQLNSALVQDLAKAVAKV
# Assay Name: Inhibition of starfish oocyte (Marthasteria glacialis) Cyclin-dependent kinase 1-cyclin B1 at a concentration of 100 uM
# Assay type: protein-complex assay
# Protocol Conditions: Asteroidea
Numeric answer only, unit % assumed.

Ask: Look up inhibition for this compound: Nc1nc(OCc2ccccn2)c2nc[nH]c2n1
Reply: 58

====

# Subject Of Test: Cyclin-dependent kinase 2/cyclin A (Homo sapiens) (UniProt P24941+P20248+P78396)
# Assay Name: Inhibition of human Cyclin-dependent kinase 2-cyclin A at a concentration of 100 uM
# Format: protein-complex assay
// inhibition lookup, one value per entry
Dear colleague, please return just the value in %, with no unit written.

Field: example entries. Status: answers known.
{"Molecule": "CC(=O)COc1nc(N)nc2[nH]cnc12", "Subject Of Test": "Cyclin-dependent kinase 2/cyclin A (Homo sapiens) (UniProt P24941+P20248+P78396)", "Unit Abbreviation": "%", "inhibition": 16}
{"Molecule": "CC(C)C(=O)COc1nc(N)nc2nc[nH]c12", "Subject Of Test": "Cyclin-dependent kinase 2/cyclin A (Homo sapiens) (UniProt P24941+P20248+P78396)", "Unit Abbreviation": "%", "inhibition": 31}
{"Molecule": "Nc1nc(OCC(O)CO)c2nc[nH]c2n1 (configuration not stated)", "Subject Of Test": "Cyclin-dependent kinase 2/cyclin A (Homo sapiens) (UniProt P24941+P20248+P78396)", "Unit Abbreviation": "%", "inhibition": 33}
{"Molecule": "Nc1nc(OCC2CCCO2)c2[nH]cnc2n1 (configuration not stated)", "Subject Of Test": "Cyclin-dependent kinase 2/cyclin A (Homo sapiens) (UniProt P24941+P20248+P78396)", "Unit Abbreviation": "%", "inhibition": 40}
{"Molecule": "COCC(COc1nc(N)nc2[nH]cnc12)OC (configuration not stated)", "Subject Of Test": "Cyclin-dependent kinase 2/cyclin A (Homo sapiens) (UniProt P24941+P20248+P78396)", "Unit Abbreviation": "%", "inhibition": 41}

Ask: Bench note: what inhibition did CCOc1nc(N)nc2[nH]cnc12 show?
Reply: 51

Ask: Return reported inhibition; argument: COc1nc(N)nc2nc[nH]c12
Reply: 35

====

# Subject Of Test: Cyclin-dependent kinase 1/cyclin B1 (Homo sapiens, UniProt P06493+P14635)
# Assay Name: Inhibition of starfish oocyte (Marthasteria glacialis) Cyclin-dependent kinase 1-cyclin B1 at a concentration of 100 uM
# Type: protein-complex assay
# Protocol Conditions: Asteroidea
Short version: inhibition at least 50% is Condition met, less is Condition not met.

Some solved cases for reference:
{"Molecule": "COc1nc(N)nc2nc[nH]c12", "Classification": "Condition not met"}
{"Molecule": "CC1(C)OC2OC(COc3nc(N)nc4[nH]cnc34)C3OC(C)(C)OC3C2O1 (stereo not drawn)", "Classification": "Condition not met"}
{"Molecule": "CC1(C)OCC(COc2nc(N)nc3[nH]cnc23)O1 (stereo not drawn)", "Classification": "Condition not met"}
{"Molecule": "COc1cccc(COc2nc(N)nc3[nH]cnc23)c1", "Classification": "Condition met"}
{"Molecule": "CC(C)C(=O)COc1nc(N)nc2nc[nH]c12", "Classification": "Condition not met"}
{"Molecule": "CC(=O)COc1nc(N)nc2[nH]cnc12", "Classification": "Condition not met"}

Ask: Quick check, inhibition >= 50%? Nc1nc(OCC(O)CO)c2nc[nH]c2n1 (stereo not drawn)
Reply: Condition not met

Ask: Check this molecule for inhibition at or above 50%: Nc1nc(OCc2cccnc2)c2nc[nH]c2n1
Reply: Condition met

Ask: Given CC1(C)OC[C@H](COc2nc(N)nc3[nH]cnc23)O1 , state whether its inhibition is at least 50%.
Reply: Condition not met

Ask: Dear colleague, could you confirm whether COC1OC(COc2nc(N)nc3[nH]cnc23)C2OC(C)(C)OC12 (stereo not drawn) has inhibition at or above 50%?
Reply: Condition not met

Ask: Can Nc1nc(OCC2CCCNC2)c2nc[nH]c2n1 (stereo not drawn) be said to have inhibition at or above 50%?
Reply: Condition met

Ask: # bool: inhibition of Cc1cccc(COc2nc(N)nc3nc[nH]c23)c1 >= 50%
Reply: Condition met

Cited source: ChEMBL document CHEMBL1135525
